Measured growth inhibition, listed per entry for reference.
assay: NCI Yeast Anticancer Drug Screen. Data for the bub3 strain (AID 167); details: S. cerevisiae bub3 mutant strain, at 50.0 µM, active compounds read high
This is part of a sample that, as a whole, favours compounds with a hit. Of some 79,000 tested, about 15% had one in any assay.
Just the number please, in %, no unit attached.

Here are 6 molecules together with their reported answers.
INSERT INTO assay_data (molecule, measurement_units, result) VALUES
  ('C=CC(=O)NC(=O)/C=C/c1cccnc1', '%', 10.7),
  ('CNC(=O)OCc1c(COC(=O)NC)c(-c2ccccc2)n(-c2ccccc2)c1C', '%', 22.9),
  ('O=c1cc(O)nc2cn[nH]n12', '%', -3.45),
  ('CC(C)C(C)(C(N)=O)C(C)C', '%', -1.25),
  ('O=S1(=O)c2ccccc2N2CCCc3cc(Cl)cc1c32', '%', -8.9),
  ('CC1(c2cccc3ccccc23)OC(=O)c2cccc(F)c21 (stereo not drawn)', '%', 7.6);

Summary for this molecule, `CC1=C(C(=O)NCc2ccccc2)C(c2ccco2)C(C(=O)NCc2ccccc2)=C(C)N1` : growth inhibition is -9.9

growth inhibition measured on `C[CH2][Sn]([CH2]C)([N](c1ccccn1)c1ccccn1)[N](c1ccccn1)c1ccccn1` = -0.6

Lookup result for `O=C(/C=C/c1ccccc1)NC(=S)Nc1cc(Cl)ccc1O` ; measured growth inhibition: 12.7

GET /value?item= CC(=O)NC1C(O)C(O)C(CO)OC1n1nc(SCc2ccccc2)c(=O)[nH]c1=O (stereo not drawn) &field=growth inhibition returns -24.4

Recorded growth inhibition (molecule `O=C(CCN1C(=O)c2ccccc2C1=O)c1cnc(N2C(=O)c3ccccc3C2=O)[nH]1` ): 18.9

Input `O=C(O)CNCc1ccccc1` . Output growth inhibition: 16.4

Just so you know, measured growth inhibition for `C/C(=N\n1cc(-c2ccccc2)nc1N)c1ccccc1` came out at 20.6

growth inhibition reported for this molecule `CC(C)=NNC(=O)COCC(=O)NN=C(C)C` : -22.9

Lab note: `Cc1sc2nc3n(c(=O)c2c1C)N=C(c1ccc([N+](=O)[O-])cc1)CS3` gave growth inhibition of 7.2

Item: `O=C(CCc1nnc2s/c(=C\c3ccc(Cl)cc3Cl)c(=O)n12)Nc1cc(Cl)c(Cl)cc1Cl` | growth inhibition: 9.05

// field: growth inhibition; key: `S=c1[nH]c(=S)c2nnn(-c3ccccc3)c2[nH]1` ; value = -47.9

Kindly note the recorded growth inhibition for CCCCCCC1OCC(C)([N+](=O)[O-])CO1 (stereo not drawn) , which is -12.6
